Reported CC50 at 1 h values for a set of compounds
assay: Cytotoxicity against human HK-2 cells assessed as reduction in cell viability incubated for 1 hr by resazurin based microplate reader method; format: toxicity
Where a SMILES comes first, the peptide text is derived from it.
// note: answer is a bare numeric in µM

CC(C)C[C@H](NC(=O)[C@H](CCCNC(=N)N)NC(=O)CNC(=O)CNC(=O)[C@@H](N)CCCNC(=N)N)C(=O)N[C@@H](CS)C(=O)N[C@@H](Cc1ccc(O)cc1)C(=O)N[C@@H](CS)C(=O)N[C@@H](CCCNC(=N)N)C(=O)N[C@@H](CCCNC(=N)N)C(=O)N[C@@H](CCCNC(=N)N)C(=O)N[C@@H](Cc1ccccc1)C(=O)N[C@@H](CS)C(=O)N[C@H](C(=O)N[C@@H](CS)C(=O)N[C@H](C(=O)NCC(=O)N[C@@H](CCCNC(=N)N)C(N)=O)C(C)C)C(C)C (H-RGGRLCYCRRRFCVCVGR-NH2) :: 14.2

Data request: Please report the recorded CC50 at 1 h for CC[C@H](C)[C@H](N)C(=O)N[C@@H](CCCNC(=N)N)C(=O)N[C@H](C(=O)N[C@@H](CCCNC(=N)N)C(=O)N[C@@H](CS)C(=O)N[C@@H](CCCNC(=N)N)C(=O)N[C@@H](CCCNC(=N)N)C(=O)N[C@@H](CCCNC(=N)N)C(=O)N[C@@H](Cc1ccccc1)C(=O)N[C@@H](CS)C(=O)N[C@@H](CCCNC(=N)N)C(=O)N[C@H](C(=O)N[C@@H](CCCNC(=N)N)C(=O)N[C@H](C(N)=O)[C@@H](C)CC)[C@@H](C)CC)[C@@H](C)CC (H-IRIRCRRRFCRIRI-NH2) .
Data returned: 37.1
